Form field: growth (one value per entry).
- System: COLO 205 colon
- procedure.details: NCI-60 one-dose screen, 48 h (100 = growth as untreated, 0 = no growth, -100 = all killed)
- measurement.conditions: 10 µM unless noted
- Protocol: Cells are grown in 96 well plates and exposed to the test compound for 48 hours. Compounds are tested at a single concentration, which is 10^-5 M for most compounds. The reported endpoint is percent growth (GI% or GIPRCNT), where numbers from 0 - 100% represent growth inhibition, and numbers from -100% - 0 represent cell death. For example, a value of 40 represents 60% growth inhibition. A value of 0 means no net growth occurred over the course of the experiment. […]
Compounds without any hit were thinned out: in the full panel of roughly 83,000, 20% have a hit. Calls of active or inactive are those of the source. Rule for the calls: active = growth percent below 10; inactive = the rest.

compound | growth
FC(F)(F)c1cccc(Nc2ccccc2)c1 | 105% (inactive)
COc1ccc(Cl)cc1NC(=O)c1c(NC(=O)C(F)(F)C(F)(F)F)sc2c1CCCCC2 | -32.9% (active)
CC1(C)CC[C@]2(C(=O)NCC#CCN3CCOCC3)CC[C@]3(C)C(=CC[C@@H]4[C@@]5(C)Cc6c([nH]c7ccccc67)C(C)(C)[C@@H]5CC[C@]43C)[C@@H]2C1 | 30.5% (inactive)
CCN(CC)CCCC(C)Nc1c2c(nc3ccc(OC)cc13)CCCC2 (centres undefined) | 100% (inactive)
COc1cccc(NC(=O)c2cccc(-c3cc(=O)c4c(OC)c(OC)c(OC)cc4o3)c2)c1 | 68.3% (inactive)
CN1CCN(C(=O)OCc2nc3c(N4CCOCC4)nc(-c4ccccc4)nc3n2C)CC1 | -53% (active)
Cc1ccc(Nc2cc(=S)nc(N)[nH]2)cc1C | 112% (inactive)
CN1CCN(CCCOc2ccc3ncnc(Nc4ccc(Oc5cccc(C(F)(F)F)c5)c(Cl)c4)c3c2)CC1 | -51.8% (active)
COc1ccc(C(O)c2cc3c(N)c(C(=O)Nc4ccc(Cl)cc4)sc3nc2C)cc1 (centres undefined) | 13.6% (inactive)
CN1CCN(CCCNc2nccc(-c3c(-c4ccc(F)c(O)c4)nc4sccn34)n2)S1(=O)=O | 29.8% (inactive)
Cn1c(COC(=O)NCCn2ccnc2)nc2c(N3CCOCC3)nc(-c3ccccc3)nc21 | -57.3% (active)
COc1cc2nnn3c4ncccc4c(N=O)c3c2cc1OC | 102% (inactive)
COc1cccc(-c2nc3occn3c2-c2ccnc(NCCCNS(=O)(=O)c3cccc(F)c3)n2)c1 | 45.5% (inactive)
COc1ccc(C2=C(c3ccccc3)c3ccc(OC(C)=O)cc3OC2(C)C)cc1 | 108% (inactive)
COc1cc(-c2nc3occn3c2-c2ccnc(NCCNS(=O)(=O)c3ccc(Cl)cc3)n2)ccc1F | 86.5% (inactive)
Cc1cc2nc(-c3ccccc3)c(-c3ccccc3)nc2cc1C | 119% (inactive)
NC(=S)N/N=C(/c1ccccc1)c1ccccc1N | 108% (inactive)
Cc1nn(-c2ccccc2)c(N2CCOCC2)c1/C=N/N=c1\sc2ccccc2n1C | 82.7% (inactive)
COc1ccc2c(Nc3ccc(NS(C)(=O)=O)cc3)c3ccccc3nc2c1 | -74.1% (active)
COc1ccc(-c2nc(SC)nc(N3CCOCC3)c2C#N)cc1 | 99% (inactive)
O=C(O)CCCCCCCCCCCCCCC(=O)O | 108% (inactive)
C=C1C(=O)O[C@H]2[C@H]1CC/C(COC(=O)NCCc1c[nH]c3ccc(Cl)cc13)=C\CC[C@@]1(C)O[C@@H]21 | -70.9% (active)
O=C(Nc1nc2ccc(C(=O)N3CCN(c4ccc(Cl)c(Cl)c4)CC3)cc2s1)c1ccc(NCCc2ccccc2)c([N+](=O)[O-])c1 | 108% (inactive)
Cc1cccc(Oc2ccc(Nc3ncnc4ccc(NC(=O)CN(C)C)cc34)cc2Cl)c1 | -15.8% (active)
COC(=O)N[C@H]1CCc2cc(OC)c(OC)c(OC)c2-c2ccc(SC)c(=O)cc21 | -18.6% (active)
Cc1c([N+](=O)[O-])cc(C(C)(C)C)cc1[N+](=O)[O-] | 114% (inactive)
Cn1c2c(Cl)c(Cl)ccc2c2cc(N)[nH]c(=O)c21 | 92.1% (inactive)
Cc1cc(C)n(Nc2nc3ccccc3[nH]c2=O)c(=O)c1C#N | 113% (inactive)
COc1cc(CCNc2nc3cc(N)cc(N)c3nc2-c2ccccc2)cc(OC)c1 | -60.8% (active)
Nc1nc(N)nc(NCc2ccccc2)n1 | 119% (inactive)
COc1ccc(/C=C2\COc3ccc(-c4ccccc4)cc3C2=O)cc1O | 63.9% (inactive)
O=C(N/N=C/c1ccncc1)c1ccccc1Nc1cccc(C(F)(F)F)c1 | 107% (inactive)
O=C(Nc1ccccc1)Oc1ccccc1-c1ccccc1 | 96% (inactive)
CC(=O)[C@@H]1CC[C@]2(C(=O)n3ccnc3)CC[C@]3(C)[C@H](CC[C@@H]4[C@@]5(C)Cc6c([nH]c7ccccc67)C(C)(C)[C@@H]5CC[C@]43C)[C@@H]12 | 101% (inactive)
COc1ccc(C(=O)c2cc(C)c(OC)c(C)c2)c(OC)c1N(C(=O)C(Cl)Cl)C(=O)C(Cl)Cl | -34.6% (active)
Fc1ccc(C2CC(c3cccc(Nc4ccncc4)c3)=NN2c2ccccc2)cc1 (centres undefined) | -64.8% (active)
O=C(O)C(/C=C/c1ccco1)=N\Nc1nc(-c2ccc(Cl)cc2)cs1 | 94.6% (inactive)
CC(=O)OC1CCC2(C)C(CCC3C4CC=C(C(C)=O)C4(C)OC(=O)CC32)C1 (centres undefined) | 2.72% (active)
COc1ccc(-c2nn(Cc3ccccc3)c3c2-c2oncc2CC3)cc1OC | 136% (inactive)
